- System: Escherichia coli TOP10;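 further: peptides expressed intracellularly from a pBAD plasmid library in pooled LB shake-flask culture, induced with 0.3% L-arabinose, DNA abundance read by NGS, three biological replicates, DESeq2 with apeglm shrinkage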
- experiment summary: shrunken log2 fold change of peptide-encoding DNA abundance (4.5 h post-induction vs induction); higher = less antimicrobial activity (less host growth inhibition)
- condition: time post-induction: 4.5 h; library: site-saturation at positions 5, 18, 19, 20
Mark label 0 for shrunken log2 fold change values under 0.2, and label 1 for everything at or above.

Consider the following illustrative entries.
>>> label_class("RRIRVRPPRLPRPRPRPFFNPRP")
"label 0"
>>> label_class("RRIRCRPPRLPRPRPRPYFHPRP")
"label 0"
>>> label_class("RRIRPRPPRLPRPRPRPDHAPRP")
"label 1"

Q: Given "RRIRPRPPRLPRPRPRPTWGPRP" , state whether its shrunken log2 fold change is at least 0.2.
Result: label 1
